Taken from paper PMC6271245.

# Tested on: Enterovirus 71 (EV71)
# experimentSummary: Inhibition of EV71-induced cytopathogenicity (CPE) in Vero cells, MTT
# Format: cell-based
# conditionsUsed: Enterovirus A; concentration for 50% protection from virus-induced cytopathogenicity; Vero cells, 100 TCID50 EV71, 48 h, MTT; mean ± SD of three experiments; read-out: EC50 (µg/mL) Vero
Rule: EC50 below 9 µg/mL gives Criterion met. Equal to or above 9 µg/mL gives Criterion not met.

compound	classLabel
Cn1cc(C(Nc2nc3ccccc3s2)c2ccccc2F)c2ccccc21 (stereo not drawn)	Criterion not met

Switching to the query record.
QUERY: Does the reported EC50 of Cn1cc(C(Nc2ccccn2)c2ccncc2)c2ccccc21 (stereo not drawn) stay below 9 µg/mL?
RESULT: Criterion not met

* * *

# experimentSummary: Cytotoxicity on uninfected Vero cells, MTT
# Assay type: cell-based
# conditionsUsed: African green monkey
assayReadout: CC50 at 48 h (µg/mL)
Just the number in µg/mL, nothing appended.

QUERY: What value of measured CC50 at 48 h is listed for CN(C)Cc1c[nH]c2ccccc12 ?
RESULT: 101

* * *

# experimentSummary: Cytotoxicity on uninfected RD cells, MTT
# Format: cell-based
# conditionsUsed: human, concentration reducing cell viability by 50%
Parameter: CC50 at 48 h. Scope: all listed entries.
Numbers only; they are read as µg/mL.

Recorded results for 3 molecules are shown here.
molecule	resultValue
Clc1ccc(C(Nc2ccccn2)c2c[nH]c3ccccc23)cc1 (centres unmarked)	24.6
Clc1ccccc1C(Nc1nc2ccccc2s1)c1c[nH]c2ccccc12 (centres unmarked)	11.7
Fc1ccc(C(Nc2ccccn2)c2c[nH]c3ccccc23)cc1 (centres unmarked)	29.5

QUERY: Requested field: CC50 at 48 h. Item: c1ccc(NC(c2ccccn2)c2c[nH]c3ccccc23)nc1 (centres unmarked)
RESULT: 65.2

QUERY: What about Cn1cc(C(Nc2ccccn2)c2ccccc2Cl)c2ccccc21 (centres unmarked) ?
RESULT: 44

* * *

# Tested on: Enterovirus 71 (EV71)
# experimentSummary: Inhibition of EV71-induced cytopathogenicity (CPE) in Vero cells, MTT
# Format: cell-based
# conditionsUsed: Enterovirus A; concentration for 50% protection from virus-induced cytopathogenicity; Vero cells, 100 TCID50 EV71, 48 h, MTT; mean ± SD of three experiments; read-out: EC50 (µg/mL) Vero
Classify on EC50 using low class = under 2 µg/mL, middle class = from 2 µg/mL up to 9 µg/mL, high class = 9 µg/mL and over

compound	classLabel
NC(=O)c1ncn([C@@H]2O[C@H](CO)[C@@H](O)[C@H]2O)n1 [ribavirin, reference compound]	high class
Clc1ccccc1C(Nc1nc2ccccc2s1)c1c[nH]c2ccccc12 (stereo not drawn)	middle class
Clc1ccc(C(Nc2ccccn2)c2c[nH]c3ccccc23)cc1 (stereo not drawn)	middle class
Fc1ccc(C(c2c[nH]c3ccccc23)n2cncn2)cc1 (stereo not drawn)	middle class
FC(F)(F)c1ccc(C(Nc2ccccn2)c2c[nH]c3ccccc23)cc1 (stereo not drawn)	middle class

QUERY: Looking at Cn1cc(C(Nc2ccccn2)c2ccc(Cl)cc2)c2ccccc21 (stereo not drawn) , which class would you pick?
RESULT: middle class

QUERY: Also, Cn1cc(C(Nc2ccccn2)c2ccccc2F)c2ccccc21 (stereo not drawn) please.
RESULT: high class

QUERY: Check Fc1ccccc1C(Nc1nc2ccccc2s1)c1c[nH]c2ccccc12 (stereo not drawn) too.
RESULT: low class

QUERY: // query: Fc1ccc(C(c2c[nH]c3ccccc23)n2cccn2)cc1 (stereo not drawn)
RESULT: low class
